# assay_target: Neuropeptide S receptor (Homo sapiens) (UniProt Q6W5P4)
# Sequence (Q6W5P4 whole entry, looked up): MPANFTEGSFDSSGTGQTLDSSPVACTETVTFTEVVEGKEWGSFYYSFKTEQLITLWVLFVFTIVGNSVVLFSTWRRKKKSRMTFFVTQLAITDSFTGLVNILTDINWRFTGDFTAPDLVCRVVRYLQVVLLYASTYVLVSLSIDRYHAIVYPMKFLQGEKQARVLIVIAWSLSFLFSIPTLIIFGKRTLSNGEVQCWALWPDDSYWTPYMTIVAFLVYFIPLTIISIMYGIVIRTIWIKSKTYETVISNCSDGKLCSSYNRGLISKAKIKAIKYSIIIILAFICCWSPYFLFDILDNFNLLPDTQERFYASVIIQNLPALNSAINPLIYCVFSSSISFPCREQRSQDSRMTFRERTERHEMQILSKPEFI
# assay_info: Confirmation Concentration-Response Assay for Antagonists of the Neuropeptide S Receptor: Calcium Signal Transduction, SAR for Probe
# setup_conditions: CHO-NPSR cells, NPS-induced calcium fluorescence, FDSS; series mostly up to 19.3 µM
# Excerpt: NIH Chemical Genomics Center [NCGC] NIH Molecular Libraries Probe Production centers Network [MLPCN] MLPCN Grant: X01-DA026210-01 Assay Submitter (PI): Heilig, Markus Alexander NCGC Assay Overview: Neuropeptide S receptor (NPSR), previously known as GPR154, is a recently de-orphanized G protein coupled receptor. […] This change in intracellular calcium can be detected using a calcium indicator dye on a calcium imaging plate reader system (FDSS). […]
Results filed as inconclusive are left out. Active and inactive are the calls of the source. Calls follow the shape of the dose curve; as a rule, active = well fitted antagonist curve with a large enough effect in the main read-out, with a control signal flat; inconclusive = small, poorly fitted or top-dose-only effect; inactive = no such curve, though single readings can be large or run the other way.
Use one of these outcomes when replying: class 1 = active, class 0 = inactive

>  <molecule>
COc1cccc(C2c3c(ncn(-c4ccncc4)c3=N)Oc3ccc4ccccc4c32)c1 (configuration not stated)

>  <group>
class 1

$$$$
>  <molecule>
Cc1c(P(=S)(c2ccccc2)c2ccccc2)c2ccccc2n1C(=O)Cc1ccccc1

>  <group>
class 0

$$$$
>  <molecule>
O=C(/C=C/c1ccco1)NC(=S)Nc1nc(-c2ccc3ccccc3c2)cs1

>  <group>
class 0

$$$$
>  <molecule>
c1ccc(P(c2ccccc2)c2cnc3ccccn23)cc1

>  <group>
class 1

$$$$
>  <molecule>
Cc1oc2c(c1C(=O)NCc1cccnc1)C(=O)c1ccccc1C2=O

>  <group>
class 0

$$$$
>  <molecule>
COc1ccc(C2c3c(nc(C)[nH]c3=O)Oc3ccc4ccccc4c32)cc1OC (configuration not stated)

>  <group>
class 0

$$$$

Outcome? `Cc1ccc(Nc2cc(C)nn2-c2nc(C)cc(C)n2)cc1`
class 0

Test call for this molecule, please: `CCOC(=O)c1cnc(-n2nc(C)cc2C)nc1NC1CCCC1`
class 1

Outcome logged for COc1cccc(C2c3c(ncn(-c4cccc(Cl)c4)c3=N)Oc3ccc4ccccc4c32)c1 (configuration not stated) in this assay:
class 1

Any idea what this test logged for `C[n+]1cc(C(O)(c2ccccc2)c2ccccc2)n2ccccc21` ?
class 0

Please let me know the test result on file for `Cc1c(P(=S)(c2ccccc2)c2ccccc2)c2ccccc2n1CCCc1ccccc1` .
class 0

Short answer needed: outcome of this test for COc1cccc(C2c3c(ncn(-c4ccccc4Cl)c3=N)Oc3ccc4ccccc4c32)c1 (configuration not stated) ?
class 1

Assay result, entry COc1cccc(C2c3c(ncn(-c4ccc(NC(C)=O)cc4)c3=N)Oc3ccc4ccccc4c32)c1 (configuration not stated) — outcome?
class 1
